system: Sagittaria pygmaea, L.; experiment: Preemergence weed control under flooded paddy conditions, SAGPY (Arrowhead (Pygmaea)); assay type: in vivo; conditions: Rate 0.0320 kg/ha; preemergence, flooded paddy; rated three to four weeks after treatment; also: meaning of each grade not given here
Quantity Kind: herbicidal effect rating, SAGPY
Please state the value as a number alone, without comment.

// known answers, use as guide
>  <Compound>
Cn1c(C(F)(F)F)cc(=O)n(-c2ccc3snc(/C=C/CBr)c3c2)c1=O

>  <herbicidal effect rating, SAGPY>
1.5

$$$$
>  <Compound>
Cn1c(C(F)(F)F)cc(=O)n(-c2ccc3snc(C(=O)NS(=O)(=O)c4ccc5ccccc5c4)c3c2)c1=O

>  <herbicidal effect rating, SAGPY>
0.0

$$$$
>  <Compound>
Cn1c(C(F)(F)F)cc(=O)n(-c2ccc3snc(C(=O)NOCc4ccccc4)c3c2)c1=O

>  <herbicidal effect rating, SAGPY>
0.0

$$$$
>  <Compound>
C#CCC(C#N)(CC#C)c1nsc2ccc(-n3c(=O)cc(C(F)(F)F)n(C)c3=O)cc12

>  <herbicidal effect rating, SAGPY>
3.0

$$$$
>  <Compound>
CCCCS(=O)(=O)NC(=O)C(C)Oc1ccc(C)cc1-c1nsc2ccc(-n3c(=O)cc(C(F)(F)F)n(C)c3=O)cc12 (stereo not shown)

>  <herbicidal effect rating, SAGPY>
0.0

$$$$

Q: Requested field: herbicidal effect rating, SAGPY. Item: C=C(Cl)COC(=O)c1nsc2ccc(-n3c(=O)cc(C(F)(F)F)n(C)c3=O)cc12
Result: 4.0

Q: Please answer likewise for Cc1ccc(C=C(C#N)c2nsc3ccc(-n4c(=O)cc(C(F)(F)F)n(C)c4=O)cc23)cc1
Result: 0.0

Q: Please answer likewise for C=CCONC(=O)c1nsc2ccc(-n3c(=O)cc(C(F)(F)F)n(C)c3=O)cc12
Result: 0.0

Q: Please answer likewise for Cn1c(C(F)(F)F)cc(=O)n(-c2ccc3snc(C(C#N)=Cc4ccccn4)c3c2)c1=O
Result: 0.0

Q: Please answer likewise for CCSCCOC(=O)c1nsc2ccc(-n3c(=O)cc(C(F)(F)F)n(C)c3=O)cc12
Result: 0.0

Q: Please answer likewise for CN(C(=O)c1nsc2ccc(-n3c(=O)cc(C(F)(F)F)n(C)c3=O)cc12)S(C)(=O)=O
Result: 0.0

Q: Please answer likewise for COc1ccccc1C=C(C#N)c1nsc2ccc(-n3c(=O)cc(C(F)(F)F)n(C)c3=O)cc12
Result: 0.0

Q: Please answer likewise for Cc1ccc(OC(C)(C)C(=O)NS(C)(=O)=O)c(-c2nsc3ccc(-n4c(=O)cc(C(F)(F)F)n(C)c4=O)cc23)c1
Result: 0.0

* * *

Reported herbicidal effect rating, CYPSE values follow for various compounds
system: Cyperus serotinus, Rottb.; experiment: Preemergence weed control under flooded paddy conditions, CYPSE (Flatsedge); type: in vivo; conditions: Rate 0.1250 kg/ha, preemergence, rated three to four weeks after treatment; also: meaning of each grade not given here
Please state the value as a number alone, without comment.

// known answers, use as guide
>  <Compound>
CCS(=O)(=O)NC(=O)C(C)Oc1ccc(C)cc1-c1nsc2ccc(-n3c(=O)cc(C(F)(F)F)n(C)c3=O)cc12 (centres unmarked) [Example 571]

>  <herbicidal effect rating, CYPSE>
0.0

$$$$
>  <Compound>
Cn1c(C(F)(F)F)cc(=O)n(-c2ccc3snc(C(C#N)=Cc4ccncc4)c3c2)c1=O [Example 596]

>  <herbicidal effect rating, CYPSE>
0.0

$$$$
>  <Compound>
Cn1c(C(F)(F)F)cc(=O)n(-c2ccc3snc(COCc4ccc(Cl)cc4Cl)c3c2)c1=O [Example 585]

>  <herbicidal effect rating, CYPSE>
0.0

$$$$
>  <Compound>
Cn1c(C(F)(F)F)cc(=O)n(-c2ccc3snc(COC(=O)Cc4ccc(Cl)cc4Cl)c3c2)c1=O [Example 401]

>  <herbicidal effect rating, CYPSE>
0.0

$$$$
>  <Compound>
Cn1c(C(F)(F)F)cc(=O)n(-c2cc3c(CBr)nsc3cc2F)c1=O [Example 376]

>  <herbicidal effect rating, CYPSE>
5.5

$$$$
>  <Compound>
Cn1c(C(F)(F)F)cc(=O)n(-c2ccc3snc(/C=C/CBr)c3c2)c1=O [Example 360]

>  <herbicidal effect rating, CYPSE>
0.0

$$$$
>  <Compound>
C#CCC(C#N)(CC#C)c1nsc2ccc(-n3c(=O)cc(C(F)(F)F)n(C)c3=O)cc12 [Example 581]

>  <herbicidal effect rating, CYPSE>
6.0

$$$$

Next:
Q: Requested field: herbicidal effect rating, CYPSE. Item: C=C(Cl)COC(=O)c1nsc2ccc(-n3c(=O)cc(C(F)(F)F)n(C)c3=O)cc12 [Example 386]
Result: 7.0
